system: cultured chick sensory neurons from dorsal root ganglia; assay: Chick Dorsal Root Ganglion Cultures and Neurite Outgrowth; format: cell-based; details: neurite outgrowth, 48 hours after drug treatment, from dose-response curves; read-out: ED50 (the source's name)
measuredEndpoint: EC50 (pM)

- CCC(C)(C)C(=O)C(=O)N1CCCC1C(=O)SCc1csc2ccccc12 (centres unmarked) [Compound 11]: 360
- CCC(C)(C)C(=O)C(=O)N1CCC[C@H]1C(=O)CCCCc1ccccc1 [Compound 1]: 400

---

System: cultured chick sensory neurons from dorsal root ganglia
Test: Chick Dorsal Root Ganglion Cultures and Neurite Outgrowth
Type: cell-based
Conditions: Gallus gallus, Neuron; neurite outgrowth, 48 hours after drug treatment, from dose-response curves; read-out: ED50 (the source's name)
Excerpt: Dorsal root ganglia were dissected from chick embryos of ten day gestation. […] Photomicrographs of the explants were made, and neurite outgrowth was quantitated. Neurites longer than the ORG diameter were counted as positive, with total number of neurites quantitated per each experimental condition. […]
measuredEndpoint: EC50 (nM)

* O=C(C(=O)N1CCC[C@H]1C(=O)CCCCc1ccccc1)C1CCCCC1 | 5
